Values were extracted from patent US5250283A.

Kindly supply the reported concentration at 0.5 h values for the records listed here.
# measurement_protocol: Plasma concentration after i.v. IOP or TFA-IOP in rats
# Type: in vivo
# measurement_setup: plasma, iv, 100 umol/kg, rat, 30 min
Where a name gives a salt, the structure may show the parent alone.
Give the quantity in µM, number only.

Noted for CCC(Cc1c(I)cc(I)c(NC(=O)C(F)(F)F)c1I)C(=O)O (centres unmarked) [TFA-IOP, N-trifluoroacetyl-iopanoic acid] : its concentration at 0.5 h reads 573

Noted for CCC(Cc1c(I)cc(I)c(N)c1I)C(=O)O (centres unmarked) [IOP, iopanoic acid, reference compound] : its concentration at 0.5 h reads 557

---

# measurement_protocol: Biliary excretion and bile flow after i.v. TFA-IOP (100 umol/kg) or IOP (100 in text, 104 umol/kg in tables) in rats
# measurement_setup: rat, bile, iv, 100 umol/kg
Counter-ions that a name gives are not always drawn.
Kindly supply the reported concentration at 55 min values for the records listed here.
Give the quantity in µM, number only.

Noted for CCC(Cc1c(I)cc(I)c(N)c1I)C(=O)O (centres unmarked) [IOP, iopanoic acid, reference compound] : its concentration at 55 min reads 7320

Noted for CCC(Cc1c(I)cc(I)c(NC(=O)C(F)(F)F)c1I)C(=O)O (centres unmarked) [TFA-IOP, N-trifluoroacetyl-iopanoic acid] : its concentration at 55 min reads 8460

---

# measurement_protocol: Plasma concentration after i.v. IOP or TFA-IOP in rats
# Format: in vivo
# measurement_setup: plasma, iv, 100 umol/kg, rat, 70 min
Counter-ions that a name gives are not always drawn.
Kindly supply the reported concentration at 70 min values for the records listed here.
Give the quantity in µM, number only.

Noted for CCC(Cc1c(I)cc(I)c(NC(=O)C(F)(F)F)c1I)C(=O)O (centres unmarked) [TFA-IOP, N-trifluoroacetyl-iopanoic acid] : its concentration at 70 min reads 374

Noted for CCC(Cc1c(I)cc(I)c(N)c1I)C(=O)O (centres unmarked) [IOP, iopanoic acid, reference compound] : its concentration at 70 min reads 462

---

# measurement_protocol: Plasma concentration after i.v. IOP or TFA-IOP in rats
# Assay type: in vivo
# measurement_setup: plasma, iv, 100 umol/kg, rat, 90 min
Where a name gives a salt, the structure may show the parent alone.
Kindly supply the reported concentration at 1.5 h values for the records listed here.
Give the quantity in µM, number only.

Noted for CCC(Cc1c(I)cc(I)c(NC(=O)C(F)(F)F)c1I)C(=O)O (centres unmarked) [TFA-IOP, N-trifluoroacetyl-iopanoic acid] : its concentration at 1.5 h reads 360

Noted for CCC(Cc1c(I)cc(I)c(N)c1I)C(=O)O (centres unmarked) [IOP, iopanoic acid, reference compound] : its concentration at 1.5 h reads 373

---

# measurement_protocol: Tissue distribution 90 min after i.v. TFA-IOP (100 umol/kg) or IOP (100 in text, 104 umol/kg in tables) in rats
# Assay type: in vivo
# measurement_setup: rat, liver, iv, 100 umol/kg, i.v., 90 min post injection, read-out: liver concentration
Where a name gives a salt, the structure may show the parent alone.
recorded_metric: concentration at 1.5 h (µM)
Give the quantity in µM, number only.

Noted for CCC(Cc1c(I)cc(I)c(N)c1I)C(=O)O (centres unmarked) [IOP, iopanoic acid, reference compound] : its concentration at 1.5 h reads 512

Noted for CCC(Cc1c(I)cc(I)c(NC(=O)C(F)(F)F)c1I)C(=O)O (centres unmarked) [TFA-IOP, N-trifluoroacetyl-iopanoic acid] : its concentration at 1.5 h reads 202

---

Kindly supply the reported tissue uptake at 1.5 h values for the records listed here.
# measurement_protocol: Tissue distribution 90 min after i.v. TFA-IOP (100 umol/kg) or IOP (100 in text, 104 umol/kg in tables) in rats
# Assay type: in vivo
# measurement_setup: rat, in vivo, iv, 90 min, spleen, read-out: Percentage of dose per gram
Structures can show the parent of a compound that is named as a salt.
A bare number is not enough; add the unit after it.

Noted for CCC(Cc1c(I)cc(I)c(NC(=O)C(F)(F)F)c1I)C(=O)O (centres unmarked) [TFA-IOP, N-trifluoroacetyl-iopanoic acid] : its tissue uptake at 1.5 h reads 0.38 %ID/g

Noted for CCC(Cc1c(I)cc(I)c(N)c1I)C(=O)O (centres unmarked) [IOP, iopanoic acid, reference compound] : its tissue uptake at 1.5 h reads 0.61 %ID/g

---

Kindly supply the reported concentration at 0.5 h values for the records listed here.
# measurement_protocol: Biliary excretion and bile flow after i.v. TFA-IOP (100 umol/kg) or IOP (100 in text, 104 umol/kg in tables) in rats
# measurement_setup: rat, bile, iv, 100 umol/kg
Where a name gives a salt, the structure may show the parent alone.
A bare number is not enough; add the unit after it.

Noted for CCC(Cc1c(I)cc(I)c(NC(=O)C(F)(F)F)c1I)C(=O)O (centres unmarked) [TFA-IOP, N-trifluoroacetyl-iopanoic acid] : its concentration at 0.5 h reads 6440 µM

Noted for CCC(Cc1c(I)cc(I)c(N)c1I)C(=O)O (centres unmarked) [IOP, iopanoic acid, reference compound] : its concentration at 0.5 h reads 10500 µM

---

# measurement_protocol: Biliary excretion and bile flow after i.v. TFA-IOP (100 umol/kg) or IOP (100 in text, 104 umol/kg in tables) in rats
# measurement_setup: rat, bile, iv, 100 umol/kg
Counter-ions that a name gives are not always drawn.
Kindly supply the reported concentration at 40 min values for the records listed here.
Give the quantity in µM, number only.

Noted for CCC(Cc1c(I)cc(I)c(N)c1I)C(=O)O (centres unmarked) [IOP, iopanoic acid, reference compound] : its concentration at 40 min reads 9850

Noted for CCC(Cc1c(I)cc(I)c(NC(=O)C(F)(F)F)c1I)C(=O)O (centres unmarked) [TFA-IOP, N-trifluoroacetyl-iopanoic acid] : its concentration at 40 min reads 7800

---

# measurement_protocol: Tissue distribution 90 min after i.v. TFA-IOP (100 umol/kg) or IOP (100 in text, 104 umol/kg in tables) in rats
# Assay type: in vivo
# measurement_setup: rat, heart, iv, 100 umol/kg, i.v., 90 min, liver standard curve used, may be erroneous, read-out: Heart concentration
Where a name gives a salt, the structure may show the parent alone.
recorded_metric: concentration at 1.5 h (µM)
Give the quantity in µM, number only.

Noted for CCC(Cc1c(I)cc(I)c(N)c1I)C(=O)O (centres unmarked) [IOP, iopanoic acid, reference compound] : its concentration at 1.5 h reads 259

Noted for CCC(Cc1c(I)cc(I)c(NC(=O)C(F)(F)F)c1I)C(=O)O (centres unmarked) [TFA-IOP, N-trifluoroacetyl-iopanoic acid] : its concentration at 1.5 h reads 243

---

# measurement_protocol: Tissue distribution 90 min after i.v. TFA-IOP (100 umol/kg) or IOP (100 in text, 104 umol/kg in tables) in rats
# Assay type: in vivo
# measurement_setup: rat, in vivo, iv, 90 min, liver, read-out: Percentage of dose per gram
Where a name gives a salt, the structure may show the parent alone.
recorded_metric: tissue uptake at 1.5 h (%ID/g)
Give the quantity in %ID/g, number only.

Noted for CCC(Cc1c(I)cc(I)c(N)c1I)C(=O)O (centres unmarked) [IOP, iopanoic acid, reference compound] : its tissue uptake at 1.5 h reads 1.21

Noted for CCC(Cc1c(I)cc(I)c(NC(=O)C(F)(F)F)c1I)C(=O)O (centres unmarked) [TFA-IOP, N-trifluoroacetyl-iopanoic acid] : its tissue uptake at 1.5 h reads 0.46

---

# measurement_protocol: Tissue distribution 90 min after i.v. TFA-IOP (100 umol/kg) or IOP (100 in text, 104 umol/kg in tables) in rats
# Format: in vivo
# measurement_setup: rat, liver, iv, 100 umol/kg, i.v., 90 min post injection, read-out: Liver concentration
Counter-ions that a name gives are not always drawn.
recorded_metric: concentration at 1.5 h (µM)
Give the quantity in µM, number only.

Noted for CCC(Cc1c(I)cc(I)c(N)c1I)C(=O)O (centres unmarked) [IOP, iopanoic acid, reference compound] : its concentration at 1.5 h reads 512

Noted for CCC(Cc1c(I)cc(I)c(NC(=O)C(F)(F)F)c1I)C(=O)O (centres unmarked) [TFA-IOP, N-trifluoroacetyl-iopanoic acid] : its concentration at 1.5 h reads 202

---

# measurement_protocol: Tissue distribution 90 min after i.v. TFA-IOP (100 umol/kg) or IOP (100 in text, 104 umol/kg in tables) in rats
# Assay type: in vivo
# measurement_setup: rat, in vivo, iv, 90 min, lower GI, read-out: Percentage of dose per gram
Where a name gives a salt, the structure may show the parent alone.
Kindly supply the reported tissue uptake at 1.5 h values for the records listed here.
Give the quantity in %ID/g, number only.

Noted for CCC(Cc1c(I)cc(I)c(N)c1I)C(=O)O (centres unmarked) [IOP, iopanoic acid, reference compound] : its tissue uptake at 1.5 h reads 0.32

Noted for CCC(Cc1c(I)cc(I)c(NC(=O)C(F)(F)F)c1I)C(=O)O (centres unmarked) [TFA-IOP, N-trifluoroacetyl-iopanoic acid] : its tissue uptake at 1.5 h reads 0.41
